Biological target: T1, rat α-CGRP (1-37) (rat, C-terminal amide; N-terminal biotin when captured on the SA chip)
T1 construct: also called rat α (1-37); α-rat
T1 peptide: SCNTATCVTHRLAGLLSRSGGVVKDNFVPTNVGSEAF
Assay: Biacore, 37°C, Fab over CGRP on SA chip
measured.quantity: Kd (nM)
Answers are plain numbers, in nM.

Some solved cases for reference:
binder	numeric.readout
G1 variant M22 Fab (Fab, V domains shown, Fab; constant domains as m1) VH: EVQLVESGGGLVQPGGSLRLSCAASGFTFSNYWISWVRQAPGKGLEWVAEIRSESDASATHYAEAVKGRFTISRDNAKNSLYLQMNSLRAEDTAVYYCTAYFDYGLAIQNYWGQGTLVTVSS VL: EIVLTQSPATLSLSPGERATLSCKASKWVTTYVSWYQQKPGQAPRLLIYGASNRYLGIPARFSGSGSGTDFTLTISSLEPEDFAVYYCSQSYNYPYTFGQGTKLEIK	61.1
G1 variant M78 Fab (Fab, V domains shown, Fab; constant domains as m1) VH: EVQLVESGGGLVQPGGSLRLSCAASGFTFSNYWISWVRQAPGKGLEWVAEIRSKSDNTATHYAEAVKGRFTISRDNAKNSLYLQMNSLRAEDTAVYYCTVYFDYGLAIQNYWGQGTLVTVSS VL: EIVLTQSPATLSLSPGERATLSCKASKNVSTYVSWYQQKPGQAPRLLIYAASNRYTGIPARFSGSGSGTDFTLTISSLEPEDFAVYYCSQSYNYPYTFGQGTKLEIK	9280
G1 variant M11 Fab (Fab, V domains shown, Fab; constant domains as m1) VH: EVQLVESGGGLVQPGGSLRLSCAASGFTFSNYWISWVRQAPGKGLEWVAEIRSESDASATHYAEAVKGRFTISRDNAKNSLYLQMNSLRAEDTAVYYCSTYFDYGLAIQNYWGQGTLVTVSS VL: EIVLTQSPATLSLSPGERATLSCKASKRVTTYVSWYQQKPGQAPRLLIYGASNRYLGIPARFSGSGSGTDFTLTISSLEPEDFAVYYCSQSYNYPYTFGQGTKLEIK	268
G1 variant M69 Fab (Fab, V domains shown, Fab; constant domains as m1; printed L561 read as L56I) VH: EVQLVESGGGLVQPGGSLRLSCAASGFTFSNYWISWVRQAPGKGLEWVAEIRSKSDNEATHYAEAVKGRFTISRDNAKNSLYLQMNSLRAEDTAVYYCTVYFDYGLAIQNYWGQGTLVTVSS VL: EIVLTQSPATLSLSPGERATLSCKASKNVGTYVSWYQQKPGQAPRLLIYGASNRYIGIPARFSGSGSGTDFTLTISSLEPEDFAVYYCSQSYNYPYTFGQGTKLEIK	101
G1 variant M21 Fab (Fab, V domains shown, Fab; constant domains as m1) VH: EVQLVESGGGLVQPGGSLRLSCAASGFTFSNYWISWVRQAPGKGLEWVAEIRSESDASATHYAEAVKGRFTISRDNAKNSLYLQMNSLRAEDTAVYYCSAYFDYGLAIQNYWGQGTLVTVSS VL: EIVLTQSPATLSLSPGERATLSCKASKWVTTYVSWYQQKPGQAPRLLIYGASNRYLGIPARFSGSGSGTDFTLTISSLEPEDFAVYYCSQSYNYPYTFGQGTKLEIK	15.2
G1 variant M10 Fab (Fab, V domains shown, Fab; constant domains as m1) VH: EVQLVESGGGLVQPGGSLRLSCAASGFTFSNYWISWVRQAPGKGLEWVAEIRSESDASATHYAEAVKGRFTISRDNAKNSLYLQMNSLRAEDTAVYYCSSYFDYGLAIQNYWGQGTLVTVSS VL: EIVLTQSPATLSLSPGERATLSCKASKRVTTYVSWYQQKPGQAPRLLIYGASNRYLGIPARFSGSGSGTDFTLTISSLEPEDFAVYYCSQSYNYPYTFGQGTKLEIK	83.9
G1 variant M4 Fab (Fab, V domains shown, Fab; constant domains as m1) VH: EVQLVESGGGLVQPGGSLRLSCAASGFTFSNYWISWVRQAPGKGLEWVAEIRSESDASATHYAEAVKGRFTISRDNAKNSLYLQMNSLRAEDTAVYYCAVYFDYGLAIQNYWGQGTLVTVSS VL: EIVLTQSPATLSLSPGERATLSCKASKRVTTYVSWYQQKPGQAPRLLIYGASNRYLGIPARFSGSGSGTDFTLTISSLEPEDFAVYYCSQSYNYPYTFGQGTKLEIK	84.4
G1 variant M43 Fab (Fab, V domains shown, Fab; constant domains as m1) VH: EVQLVESGGGLVQPGGSLRLSCAASGFTFSNYWISWVRQAPGKGLEWVAEIRSKSDNCATHYAEAVKGRFTISRDNAKNSLYLQMNSLRAEDTAVYYCTVYFDYGLAIQNYWGQGTLVTVSS VL: EIVLTQSPATLSLSPGERATLSCKASKNVTTYVSWYQQKPGQAPRLLIYAASNRYTGIPARFSGSGSGTDFTLTISSLEPEDFAVYYCSQSYNYPYTFGQGTKLEIK	252

# batch size: 2; output Kd per entry
1. G1 variant M52 Fab (Fab, V domains shown, Fab; constant domains as m1; printed L561 read as L56I) VH: EVQLVESGGGLVQPGGSLRLSCAASGFTFSNYWISWVRQAPGKGLEWVAEIRSKSDNAATHYAEAVKGRFTISRDNAKNSLYLQMNSLRAEDTAVYYCTVYFDYGLAIQNYWGQGTLVTVSS VL: EIVLTQSPATLSLSPGERATLSCKASKNVTTYVSWYQQKPGQAPRLLIYGASNRYIGIPARFSGSGSGTDFTLTISSLEPEDFAVYYCSQSYNYPYTFGQGTKLEIK
2. G1 variant M34 Fab (Fab, V domains shown, Fab; constant domains as m1) VH: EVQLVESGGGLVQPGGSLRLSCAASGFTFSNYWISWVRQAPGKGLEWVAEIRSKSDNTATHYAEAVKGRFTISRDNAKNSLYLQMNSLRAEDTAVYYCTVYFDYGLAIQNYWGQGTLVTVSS VL: EIVLTQSPATLSLSPGERATLSCKASKNVGTYVSWYQQKPGQAPRLLIYGASNRYLGIPARFSGSGSGTDFTLTISSLEPEDFAVYYCSQSYNYPYTFGQGTKLEIK

127
121

Taken from patent US20190071490A1.
